- MEASURED ON: KsBcl-2 (Human herpesvirus 8 type P, UniProt F5HGJ3, V117A)
- Sequence (F5HGJ3 1-146 V117A): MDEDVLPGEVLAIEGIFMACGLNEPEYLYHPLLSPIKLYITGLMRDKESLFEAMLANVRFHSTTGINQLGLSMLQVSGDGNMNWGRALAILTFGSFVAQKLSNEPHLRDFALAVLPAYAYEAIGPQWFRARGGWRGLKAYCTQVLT
- TEST METHOD NOTES: biochemical
- Format: binding, Kaposi's sarcoma-associated herpesvirus
Where no end group is shown, it is not given here.
QUANTITY NAME: pIC50
By convention, pIC50 is the negative base-10 log of a molar concentration.

With KsBcl-2 (Human herpesvirus 8 type P, UniProt F5HGJ3, V117A) as the test system, provide measured pIC50 for this sequence: PAELEVECATQLRRFGDKLNFRQKLL [Noxa]
6.66
